Assay: Permeability of compound at 5 uM by PAMPA assay
Assay type: ADME
Run parameters: read-out: permeability
Measured parameter: Papp at 5 µM (×10⁻⁶ cm/s)
Kindly provide the numeric value in ×10⁻⁶ cm/s only, without the unit symbol.

For the compound "O=C(NCc1ccc2c(c1)OCO2)c1cccc(-c2ccncc2)c1" , give its reported Papp at 5 µM.
65.5

* * *

Assay: Aqueous solubility of compound at pH 7.4
Format: physicochemical
Measured parameter: solubility

For the compound "O=C(NCc1ccc2c(c1)OCO2)c1cccc(-c2ccncc2)c1" , give its reported solubility.
161 µM
